# Tested on: SK-OV-3 ovarian
# run description: NCI tumour cell line growth inhibition, 48 h
readout kind: TGI

Solved cases below.
Cn1c2ccc(C3=NCCN3)cc2c2cc(C3=NCCN3)ccc21    > 100 µM
CC(=O)c1cc(-c2ccccc2N)n(-c2ccc3c(c2)OCO3)c1C    45.3 µM

Any idea what TGI was measured for COc1ccc2c(c1)C(=O)C1CCC(=O)N1C2c1ccc2c(c1)OCO2 (stereo unspecified) ?
63.1 µM

Any idea what TGI was measured for `COC(=O)[C@H]1[C@H]2C[C@@H]3c4[nH]c5cc(OC)ccc5c4CCN3C[C@H]2C[C@@H](OC(=O)/C=C/c2cc(OC)c(OC)c(OC)c2)[C@@H]1OC` ?
32.3 µM

Any idea what TGI was measured for `Nc1cc2[nH]cnc2c(=O)[nH]1` ?
> 188 µM

Any idea what TGI was measured for COc1ccc(C2SCC(=O)N2NC(=O)C(C)Oc2ccc(Cl)cc2Cl)cc1 (stereo unspecified) ?
> 100 µM

Any idea what TGI was measured for `Nn1c(Sc2nc3ccccc3c(=O)n2N)nc2ccccc2c1=O` ?
54.6 µM

---

# Tested on: COLO 205 colon
# run description: NCI tumour cell line growth inhibition, 48 h; in the data active = GI50 below about 0.43 µM; inactive = the rest
Form entry, call: pick from active, inactive

O=C(N/N=C/c1ccc(Cl)cc1)c1[nH]c2ccc(Cl)cc2c1-c1ccccc1    active
CCOC(=O)c1c2c(n(Cc3ccccc3)c1C)-c1nc(Cc3ccccc3)[nH]c1C(=O)C2=O    inactive
COC(=O)[C@H]1[C@H]2C[C@@H]3c4[nH]c5cc(OC)ccc5c4CCN3C[C@H]2C[C@@H](OC(=O)/C=C/c2cc(OC)c(OC)c(OC)c2)[C@@H]1OC    inactive
CSc1nsc(S/C=C\C(=O)c2ccc(C)cc2)n1    inactive

Given `Cc1nn(CNc2ccccc2C(F)(F)F)c(=S)n1/N=C/c1ccc(F)cc1` , state the outcome it received in this test.
inactive

---

# Test system: SK-MEL-5 melanoma
# run description: NCI tumour cell line growth inhibition, 48 h
readout kind: TGI

Cc1c(C#N)c(=N)oc2ccccc12    > 100 µM
CC1(O)CCC2(C)C(=O)C1(C)CCC21OCCO1 (stereo not drawn)    > 100 µM
CC(C(=O)O)c1ccc(-c2ccccc2)c(F)c1 (stereo not drawn)    > 100 µM

Any idea what TGI was measured for `O=C1CCN2CCC(=O)c3c2c(cc2ccccc32)N1` ?
> 100 µM

Any idea what TGI was measured for COc1cccc(NC(=O)CC(=O)N2N=C(C)C(N=Nc3ccc(C(=O)O)cc3)C2=O)c1 (stereo not drawn) ?
> 100 µM

---

# System: NCI-H460 lung
Form entry, call: pick from class 1 = active, class 0 = inactive

Solved entries:
C=C(C)[C@@H]1CC[C@]2(CO)CC[C@]3(C)[C@H](CC[C@@H]4[C@@](C)(CCCN)[C@H](C(=C)C)CC[C@]43C)[C@@H]12    class 0
CCN(CC)CCOc1c(OC)c(Br)cc2c(C)c(C(=O)OC)oc12    class 0
CC(=O)c1cc(-c2ccccc2N)n(-c2ccc3c(c2)OCO3)c1C    class 1
CCCCN(CCCC)CCc1c(C)cc(C)c(CCN(CCCC)CCCC)c1O    class 0

Given `CC1(C)[C@@H](OC(N)=O)C=C[C@]2(CO)[C@H]3CC[C@]4(C)[C@@H](c5ccc(=O)oc5)[C@@H](Cl)C[C@]4(O)C3=CC[C@@H]12` , state the outcome it received in this test.
class 1

Given `COC(=O)c1cc(-c2ccc(OC)cc2)[nH]c1N/N=C/c1c(Cl)cccc1Cl` , state the outcome it received in this test.
class 1

Given `COc1ccc(NC(=O)n2nc(/C=C\c3ccc(O)c(OC)c3)cc2/C=C\c2ccc(O)c(OC)c2)cc1` , state the outcome it received in this test.
class 0

Given `Oc1c(CN2CCCC2)cc(CSCc2ccccc2)c2cccnc12` , state the outcome it received in this test.
class 0

Given `Clc1ccc2c(c1)C(N1CCNCC1)=Nc1ccccc1O2` , state the outcome it received in this test.
class 0

---

# Test system: COLO 205 colon
# run description: NCI tumour cell line growth inhibition, 48 h
*1 amine or outer side, *2 acyl side, *3 side chain or, on linkers, in order; H or OH if unused. Where a SMILES comes first, the peptide text is derived from it. Bridges are numbered along the chain shown (N, C = ends). [ ]: non-standard residue; d: D form. ξ: configuration not given here. X35 = CC[C@H](C)[C@@H](N[*:1])[C@@H](O)CC(=O)O[C@H](C(=O)[C@H](C)C(=O)[*:2])C(C)C; NMeY = CN[C@@H](Cc1ccc(O)cc1)C(=O)O; dNMeL = CN[C@H](CC(C)C)C(=O)O; ξΔPro = O=C(O)C1C=CCN1
readout kind: TGI (µM)
State just the number; it will be interpreted in µM.

Solved cases below.
CC[C@H](C)[C@H]1NC(=O)[C@@H](NC(=O)[C@@H](CC(C)C)N(C)C(=O)C2C=CCN2)[C@@H](C)OC(=O)[C@H](Cc2ccc(OC)cc2)N(C)C(=O)[C@@H]2CCCN2C(=O)[C@H](CC(C)C)NC(=O)[C@@H](C)C(=O)[C@H](C(C)C)OC(=O)C[C@@H]1O (stereo not given in full) (H-[ξΔPro][dNMeL]T[X35]LP[NMeY](Me); ester 3-C)    9.32
NC1c2c(Cl)sc(Cl)c2C(=O)C1O (stereo not given)    44.4
CC[C@]1(O)C[C@@H]2CN(CCc3c([nH]c4ccccc34)[C@@](C(=O)OC)(c3cc4c(cc3OC)N(C)[C@H]3[C@@](O)(C(N)=O)[C@H](O)[C@]5(CC)[C@@H]6C[C@@H]6CN6CC[C@]43[C@@H]65)C2)C1    0.00878

Any idea what TGI was measured for `COC(=O)c1cc(-c2ccc(OC)cc2)[nH]c1N/N=C/c1c(Cl)cccc1Cl` ?
2.93

---

# Tested on: SK-MEL-28 melanoma
# run description: NCI tumour cell line growth inhibition, 48 h
Each item that follows carries a reported TGI.

Solved cases below.
CN1c2ccccc2S(=O)(=O)n2c(CCc3ccccc3)nnc21    > 100 µM
CC(C)(C)n1cc(-c2ccnc(NCCCNS(=O)(=O)c3ccc(Br)cc3)c2)c(-c2cccc(O)c2)n1    3.36 µM
CC(=O)Nc1ccc(/C=C2/NC(=S)N(/C=C3\C(=O)Oc4ccccc4C3=O)C2=O)cc1    > 100 µM

Give SK-MEL-28 melanoma TGI for `O=NN1CCCS1(=O)=O`
> 100 µM

Give SK-MEL-28 melanoma TGI for `CNC(=O)N(CCC#N)CCCN(C(=O)N(C)C)c1ccccc1`
> 100 µM

Give SK-MEL-28 melanoma TGI for `COc1cc2oc(=O)cc(C)c2cc1OC`
> 100 µM

Give SK-MEL-28 melanoma TGI for `C[C@]12CC[C@@H](OC(=O)N(CCCl)N=O)C[C@@H]1CC[C@@H]1[C@@H]2CC[C@]2(C)C(=O)CC[C@@H]12`
29.6 µM

---

Each item that follows carries a reported TGI.
# Test system: EKVX NSCLC
# run description: NCI tumour cell line growth inhibition, 48 h
State just the number; it will be interpreted in µM.

COc1ccc2c(c1)C(=O)C1CCC(=O)N1C2c1ccc2c(c1)OCO2 (stereo not given)    40.2

We now examine a further molecule.
Any idea what TGI was measured for `CNCCNc1nc2ccccc2c2c(=O)c3cc(F)ccc3sc12` ?
3.57

---

# Tested on: CCRF-CEM leukemia
# run description: NCI tumour cell line growth inhibition, 48 h; in the data active = GI50 below about 0.43 µM; inactive = the rest
Form entry, call: pick from active, inactive

Solved entries:
COc1ccc(/C=C\c2cc(OC)c(OC)c(OC)c2)c(NS(=O)(=O)c2ccc(Cl)cc2)c1O    active
Cn1cc(C2=C(c3cn(C)c4cc(N)ccc34)C(=O)NC2=O)c2ccccc21    inactive
COC(=O)c1cc(-c2ccc(OC)cc2)[nH]c1N/N=C/c1c(Cl)cccc1Cl    active
CNCCNc1nc2ccccc2c2c(=O)c3cc(F)ccc3sc12    inactive
N=c1ccc2nc3c(cc(N)c4ccccc43)oc-2c1    inactive
O=C(N/N=C/c1ccc(Cl)cc1)c1[nH]c2ccc(Cl)cc2c1-c1ccccc1    active

Alright, here's another compound for you.
Given `CCOC(=O)c1c2c(n(Cc3ccccc3)c1C)-c1nc(Cc3ccccc3)[nH]c1C(=O)C2=O` , state the outcome it received in this test.
inactive

---

# Test system: NCI-H460 lung
# run description: NCI tumour cell line growth inhibition, 48 h
readout kind: TGI

Any idea what TGI was measured for CC(C(=O)O)c1ccc(-c2ccccc2)c(F)c1 (configuration not stated) ?
> 100 µM

Any idea what TGI was measured for `COc1cc2c(c(OC)c1)C(=O)O[C@H](C)CCCC/C=C/C2` ?
> 32.6 µM

These measurements were taken from PubChem BioAssay (NCI).
